Target: first (BRD4-BD1) or the second (BRD4-BD2) bromodomain of BRD4 (Homo sapiens, UniProt O60885)
Construct: fused on or other part: GST tag (N-terminal fusion, used for capture on the glutathione acceptor beads)
Assay: BRD4-H4 tetraacetylated peptide inhibition AlphaScreen
Settings: inhibition of interaction of GST-BRD4 bromodomain with biotinylated tetraacetylated histone H4 peptide; table does not say whether BD1 or BD2
Protocol: BRD4-H4 tetraacetylated peptide inhibition AlphaScreen Compounds are diluted in serial dilution 1:5 in assay buffer from 10 mM stock in DMSO (100 μM start concentration) in white OptiPlate-384 (PerkinElmer). […] Afterwards, the signal is measured in a PerkinElmer Envision HTS Multilabel Reader using the AlphaScreen protocol from PerkinElmer. […]
Answer each item with its documented IC50.
Numbers only, in nM.

compound	unit-info	IC50
Cc1noc(C)c1-c1ccc2c(c1)[C@H](c1ccccc1)N(C)C(=O)O2	nM	68

# per-item lookup of IC50; items listed below
1. Cc1noc(C)c1-c1ccc2c(c1)C(c1ccccc1)N(C)C(=O)O2 (stereo not shown)
2. Cc1noc(C)c1-c1ccc2c(c1)C(c1ccc(Cl)cc1)N(C)C(=O)N2 (stereo not shown)
3. Cc1noc(C)c1-c1ccc2c(c1)C(c1ccccc1)N(C)C(=O)N2C (stereo not shown)

Data returned:
[75, 105, 66]

Reference source for all entries: patent US9199988B2
